Kindly supply the reported pKd values for the records listed here.
- tgt: T1, CDT1^ΔN (N-terminally truncated CDT1^158-546) (human, UniProt Q9H211 158-546)
- T1 construct: CDT1, human, UniProt Q9H211, residues 158-546 (lacks the unstructured N-terminus); Plasmid is in Supplementary Data 1; The His tag serves for capture on the NTA chip in the SPR with peptides; also called standard CDT1 construct; source: E. coli BL21 (DE3), purified (HisTrap Excel, POROS HS, Superdex 200); not shown: His6, N-terminal, kept
- T1 sequence (looked up): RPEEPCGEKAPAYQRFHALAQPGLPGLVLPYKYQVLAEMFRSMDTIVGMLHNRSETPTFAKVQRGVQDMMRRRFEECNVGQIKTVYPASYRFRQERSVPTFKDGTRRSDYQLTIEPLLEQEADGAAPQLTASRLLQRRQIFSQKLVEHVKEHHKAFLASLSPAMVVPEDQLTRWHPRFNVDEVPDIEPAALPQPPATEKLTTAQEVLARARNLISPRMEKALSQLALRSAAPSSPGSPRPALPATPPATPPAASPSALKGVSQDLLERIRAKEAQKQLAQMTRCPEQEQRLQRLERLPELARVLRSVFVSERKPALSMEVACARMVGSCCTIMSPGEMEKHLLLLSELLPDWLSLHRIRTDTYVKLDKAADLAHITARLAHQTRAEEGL
- assay: SPR; multi-cycle; CDT1^ΔN captured by its N-terminal His tag on an NTA chip; geminin peptides 0.49–250 nM (two-fold steps); 25 °C; 10 mM HEPES, 500 mM NaCl, 50 µM EDTA, 1 mM TCEP-HCl, 0.05% Tween-20, pH 8.0; 1:1 kinetic model of analyte dimer:CDT1, steady-state 1:1 model for Gem^96–160 and Gem^102–160
- test_settings: both partners purified
Give bare numbers, as −log10 of the molar value.

Below are worked cases with known answers.
* Gem^102–160 (peptide, UniProt O75496 102-160, looked up, geminin, human, UniProt O75496, residues 102-160; Made on Rink amide resin; source: synthetic peptide) peptide: Ac-VAEKRRKALYEALKENEKLHKEIEQKDNEIARLKKENKELAEVAEHVQYMAELIERLNG-NH2 | 5.55
* Ac-SQYWKEVAEKRRKALYEALKENEKLHKEIEQKDNEIARLKKENKELAEVA-NH2 (peptide, UniProt O75496 96-145, looked up, geminin, human, UniProt O75496, residues 96-145; Made on Rink amide resin; source: synthetic peptide) [Gem^96–145] | 7.42

Shifting focus to the binder that follows.
Supply recorded pKd for Gem^82–145 (peptide, UniProt O75496 82-145, looked up, geminin, human, UniProt O75496, residues 82-145; Made on Rink amide resin; source: synthetic peptide) peptide: Ac-TQESFDLMIKENPSSQYWKEVAEKRRKALYEALKENEKLHKEIEQKDNEIARLKKENKELAEVA-NH2 here. 8.24
